ASSAYED_TARGET: Soybean lipoxygenase (Type I-B) (Glycine max, UniProt P08170)
Construct: purchased Merck (KGaA, Darmstadt, Germany)
Sequence (P08170 whole entry): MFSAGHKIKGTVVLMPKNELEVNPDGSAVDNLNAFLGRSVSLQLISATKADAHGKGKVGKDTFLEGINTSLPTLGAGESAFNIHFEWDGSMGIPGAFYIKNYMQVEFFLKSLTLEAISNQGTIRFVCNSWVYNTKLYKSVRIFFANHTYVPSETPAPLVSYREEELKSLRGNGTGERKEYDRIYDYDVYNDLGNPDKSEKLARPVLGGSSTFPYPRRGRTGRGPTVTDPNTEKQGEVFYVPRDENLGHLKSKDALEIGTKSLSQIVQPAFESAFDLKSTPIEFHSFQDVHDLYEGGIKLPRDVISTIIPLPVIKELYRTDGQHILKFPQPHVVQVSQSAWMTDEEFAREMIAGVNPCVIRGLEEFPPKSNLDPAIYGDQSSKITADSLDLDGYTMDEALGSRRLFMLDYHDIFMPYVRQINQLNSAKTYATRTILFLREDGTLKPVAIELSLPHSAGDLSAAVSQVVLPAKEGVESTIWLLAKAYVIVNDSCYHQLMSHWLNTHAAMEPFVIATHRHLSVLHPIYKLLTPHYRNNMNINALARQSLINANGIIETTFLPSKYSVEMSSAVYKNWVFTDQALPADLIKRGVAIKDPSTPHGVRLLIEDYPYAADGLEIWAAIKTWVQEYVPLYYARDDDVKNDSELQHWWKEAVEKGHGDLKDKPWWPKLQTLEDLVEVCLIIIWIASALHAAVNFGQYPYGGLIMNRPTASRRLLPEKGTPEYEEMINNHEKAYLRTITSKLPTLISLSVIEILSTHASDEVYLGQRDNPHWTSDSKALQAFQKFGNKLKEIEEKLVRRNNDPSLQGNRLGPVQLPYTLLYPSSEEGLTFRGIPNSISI
TEST_PROTOCOL: In vitro LOX inhibition assay
Type: biochemical
SETTINGS: 40 µM
Respond with t for inhibition at 40 µM values of 40% and above, f for values below.

MOLECULE	LABEL_VALUE
C/C(NNC(=O)c1cc(O)c(O)c(O)c1)=C1\C(=O)Oc2ccccc2C1=O	t
C/C(NNC(=O)c1ccc(O)c(O)c1O)=C1\C(=O)Oc2ccccc2C1=O	t
NNC(=O)c1ccc(O)c(O)c1O [H-1, 2,3,4-trihydroxybenzohydrazide]	f
CC(=O)c1c(O)c2ccccc2oc1=O [3AcHyC, 3-acetyl-4-hydroxycoumarin]	f
NNC(=O)c1cc(O)c(O)c(O)c1 [H-2, 3,4,5-trihydroxybenzohydrazide]	t
